Task for the reader: assign each of the following compounds its reported Dmax.
- Target or system: SMARCA2 (Homo sapiens, UniProt P51531)
- Sequence (P51531 whole entry): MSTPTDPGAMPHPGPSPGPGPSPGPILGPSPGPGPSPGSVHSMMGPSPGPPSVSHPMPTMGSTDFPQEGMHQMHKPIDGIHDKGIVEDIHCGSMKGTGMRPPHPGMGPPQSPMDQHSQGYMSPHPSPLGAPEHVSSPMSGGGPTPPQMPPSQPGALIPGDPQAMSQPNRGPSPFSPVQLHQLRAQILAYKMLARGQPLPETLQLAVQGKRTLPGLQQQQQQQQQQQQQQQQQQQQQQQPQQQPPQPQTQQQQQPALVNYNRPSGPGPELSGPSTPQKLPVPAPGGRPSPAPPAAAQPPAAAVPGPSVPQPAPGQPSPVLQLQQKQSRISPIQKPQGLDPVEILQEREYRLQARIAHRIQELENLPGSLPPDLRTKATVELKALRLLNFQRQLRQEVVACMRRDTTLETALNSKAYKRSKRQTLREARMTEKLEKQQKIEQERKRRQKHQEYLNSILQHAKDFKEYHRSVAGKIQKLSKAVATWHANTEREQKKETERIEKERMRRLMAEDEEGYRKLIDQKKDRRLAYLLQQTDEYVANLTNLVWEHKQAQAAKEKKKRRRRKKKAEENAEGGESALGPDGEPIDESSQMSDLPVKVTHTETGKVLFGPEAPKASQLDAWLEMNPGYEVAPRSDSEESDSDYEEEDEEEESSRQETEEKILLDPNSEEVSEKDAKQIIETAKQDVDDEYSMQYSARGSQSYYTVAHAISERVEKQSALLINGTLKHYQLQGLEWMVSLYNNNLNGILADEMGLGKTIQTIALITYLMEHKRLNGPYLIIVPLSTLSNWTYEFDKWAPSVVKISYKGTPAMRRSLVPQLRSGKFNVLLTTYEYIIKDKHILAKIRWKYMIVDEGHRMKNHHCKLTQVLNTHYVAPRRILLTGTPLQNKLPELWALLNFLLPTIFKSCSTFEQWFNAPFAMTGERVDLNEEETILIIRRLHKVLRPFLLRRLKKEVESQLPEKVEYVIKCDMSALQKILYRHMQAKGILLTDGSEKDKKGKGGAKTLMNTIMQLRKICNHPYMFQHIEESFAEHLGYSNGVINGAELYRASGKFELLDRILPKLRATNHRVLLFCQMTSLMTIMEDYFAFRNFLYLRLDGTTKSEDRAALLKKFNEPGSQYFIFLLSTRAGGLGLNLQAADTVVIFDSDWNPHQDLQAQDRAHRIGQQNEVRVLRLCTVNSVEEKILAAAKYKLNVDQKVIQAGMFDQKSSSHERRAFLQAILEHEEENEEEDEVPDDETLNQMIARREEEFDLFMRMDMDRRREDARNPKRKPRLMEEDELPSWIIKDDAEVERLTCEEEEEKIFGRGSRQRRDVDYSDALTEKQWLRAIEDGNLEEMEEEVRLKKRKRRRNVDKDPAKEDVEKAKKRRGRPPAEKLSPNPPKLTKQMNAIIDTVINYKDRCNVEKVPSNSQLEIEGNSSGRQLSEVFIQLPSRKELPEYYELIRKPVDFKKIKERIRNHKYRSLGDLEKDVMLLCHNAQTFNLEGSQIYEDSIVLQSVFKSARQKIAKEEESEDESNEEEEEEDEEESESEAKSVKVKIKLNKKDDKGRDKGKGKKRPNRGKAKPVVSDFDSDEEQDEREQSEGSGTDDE
- Assay overview: MSD SMARCA2 degradation in A549 cell line
- Format: cell-based
- Design: endogenous in cells
- Measurement conditions: A549, A549 cells, 24 h

Record Dmax for all entries; do not skip any.
1. Cc1ncsc1-c1ccc([C@H](C)NC(=O)[C@@H]2C[C@@H](O)CN2C(=O)[C@@H](NC(=O)[C@H]2CC3(C2)C[C@H](N2CCC(c4cnc(N5C6CCC5CN(c5cc(-c7ccccc7O)nnc5N)C6)nc4)CC2)C3)C(C)(C)C)cc1 (single isomer, unassigned) [I-1]
2. Cc1ncsc1-c1ccc(CNC(=O)[C@@H]2C[C@@H](O)CN2C(=O)C(c2cc(N3CCC(N4CCC(c5cnc(N6C7CCC6CN(c6cc(-c8ccccc8O)nnc6N)C7)nc5)CC4)CC3)no2)C(C)C)cc1 (mixture of isomers) [I-47]

Ans:
1: > 90%; 2: > 90%
